B1: CPEB3 Ribozyme (parent)
chain: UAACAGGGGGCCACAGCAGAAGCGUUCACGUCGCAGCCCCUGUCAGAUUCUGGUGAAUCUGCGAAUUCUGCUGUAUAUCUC

Variants of: B1
Test: self-cleavage, relative activity (ratio to wild type); higher = more cleavage; in vitro, sequencing
This listing pairs variants with measured self-cleavage.
Simply state the number, no unit and no words.

U43C A77G ... 0.58
U41A C59U ... 0.06
U66A U69A ... 0.32

Q: Give the reported value of self-cleavage for this record: A2C U67C
Ans: 0.36

Q: Give the reported value of self-cleavage for this record: U72C A77U
Ans: 1.21

Q: Give the reported value of self-cleavage for this record: G36A U54A
Ans: 0.31

Q: Give the reported value of self-cleavage for this record: G36A U58C
Ans: 0.27

Q: Give the reported value of self-cleavage for this record: U43A A64G
Ans: 1.04

Q: Give the reported value of self-cleavage for this record: C40A A45G
Ans: 0.26

Q: Give the reported value of self-cleavage for this record: A2G U80A
Ans: 0.77

Q: Give the reported value of self-cleavage for this record: C32U G42A
Ans: 0.19

Q: Give the reported value of self-cleavage for this record: G63C U72C
Ans: 1.14
